target: Retinol binding protein-4 (RBP-4) (UniProt P02753 19-201); assay: EIS (electrochemical impedance, Langmuir linearization); folded aptamer, 0.1 uM in immobilization; 2 mM MgCl2; Fe(CN)6 3-/4- probe; 0.1 M PBS + 2 mM MgCl2, Fe(CN)6 3-/4- redox probe, aptamer on gold electrode with MCH; aptamer folded at 70 C 1 min then ice 10 min; immobilization at room temp
assay_metric: Kd

INSERT INTO results (binder, assay_metric, experimental_result) VALUES
  ('ACAGTAGTGAGGGGTCCGTCGTGGGGTAGTTGGGTCGTGG (ssDNA, 5''-thiol (-SH)) [Apt-RBP-4]', 'Kd', '50 nM');
